src = patent US20240270846A1

- SUBJECT OF TEST: T1, biotin-labeled CD3 epsilon peptide antigen (human, also: biotin-labeled, position not given here)
- T1 construct: Peptide of CD3 epsilon; also called CD3 peptide
- T1 peptide: QDGNEEMGGITQTPY
- TEST NAME: bead ELISA, biotin-CD3 epsilon peptide on streptavidin beads, 100 ng IgG
Where no end group is shown, it is not given here.
ATTRIBUTE MEASURED: RLU, CD3 peptide

Reported RLU, CD3 peptide for DXDU01_3#019 (antibody, human IgG1, V domains shown, also called dBBDu125) VH: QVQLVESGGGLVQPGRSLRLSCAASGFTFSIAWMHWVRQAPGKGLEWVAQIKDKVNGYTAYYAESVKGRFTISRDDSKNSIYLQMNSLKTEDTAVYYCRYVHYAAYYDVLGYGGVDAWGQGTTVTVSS VL: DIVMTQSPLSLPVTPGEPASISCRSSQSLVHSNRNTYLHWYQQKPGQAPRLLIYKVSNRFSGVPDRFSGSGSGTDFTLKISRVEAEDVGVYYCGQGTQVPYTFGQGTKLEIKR was 191000 RLU
